Biological target: Endothelial lipase (EL) (Homo sapiens, UniProt Q9Y5X9)
Construct: HT-1080 cells that were transformed using RAGE technology (Athersys) to overexpress endogenous EL; endogenous in cells; conditioned medium used
Sequence (Q9Y5X9 21-500): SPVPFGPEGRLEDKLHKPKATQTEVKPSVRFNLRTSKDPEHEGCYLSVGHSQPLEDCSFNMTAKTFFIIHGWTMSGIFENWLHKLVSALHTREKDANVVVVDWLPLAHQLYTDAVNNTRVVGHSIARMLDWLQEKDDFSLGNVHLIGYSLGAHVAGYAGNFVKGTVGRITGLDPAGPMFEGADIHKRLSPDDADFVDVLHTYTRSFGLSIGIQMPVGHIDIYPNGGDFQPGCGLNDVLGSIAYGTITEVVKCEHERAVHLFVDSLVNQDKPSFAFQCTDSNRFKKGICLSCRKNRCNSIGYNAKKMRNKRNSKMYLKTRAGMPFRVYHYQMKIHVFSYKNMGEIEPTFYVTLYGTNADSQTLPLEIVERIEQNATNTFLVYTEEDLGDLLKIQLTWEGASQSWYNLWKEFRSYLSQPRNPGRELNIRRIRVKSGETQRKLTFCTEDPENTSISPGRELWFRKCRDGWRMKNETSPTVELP
Experiment: Endothelial lipase (EL) enzymatic assay, fluorescent substrate A10070 in DMPG vesicles
Format: biochemical
Conditions: EL from conditioned media of HT-1080 cells; compound preincubated 30 min at 37° C; read-out: EL IC50
READOUT: IC50 (nM)

• CC1(Cc2nnc(C(c3nc4ccc(-c5ccc(C(=O)N6CCOCC6)cc5)cc4s3)S(=O)(=O)Cc3ccccc3)o2)NC(=O)NC1=O (stereo not shown) [Example 5] = 30
• CS(=O)(=O)NCc1nnc(C(c2nc3ccc(-c4ccc(F)nc4)cc3s2)S(C)(=O)=O)o1 (stereo not shown) = 240
• COCc1ccc(-c2ccc3nc(C(c4nnc(CNS(N)(=O)=O)o4)S(=O)(=O)Cc4ccccc4F)sc3c2)cc1 (stereo not shown) = 2
• CC1(O)CN(C(=O)c2cccc(-c3ccc4nc(C(c5nnc(CC6(C)NC(=O)NC6=O)o5)S(C)(=O)=O)sc4c3)c2)C1 (stereo not shown) = 17
